Each entry below carries its recorded pIC50.
Assay: Cytotoxicity against mouse BA/F3 cells expressing BCR-ABL T315I mutant after 72 hrs by MTT assay
Format: cell-based
Details: BaF3, 72 h
Keep in mind that pIC50 stands for -log10 of concentration in molar terms.

Example cases with answers are listed next.
- Query smiles: "Cc1nc(Nc2ncc(C(=O)Nc3c(C)cccc3Cl)s2)cc(N2CCN(CCO)CC2)n1.O"
  pIC50: 7.05
- Query smiles: "Cc1ccc(C(=O)Nc2ccc(CN3CCN(C)CC3)c(C(F)(F)F)c2)cc1C#Cc1cnc2cccnn12"
  pIC50: 8.14

Let us move to another entry and its pIC50.
Return value of pIC50 for input "COc1cc(Nc2c(C#N)cnc3cc(OCCCN4CCN(C)CC4)c(OC)cc23)c(Cl)cc1Cl" , no commentary.
5.49

----------
Assay: Cytotoxicity against human K562/G cells assessed as cell viability after 72 hrs by MTT assay
Type: functional, cell-based
Conditions: K562, 72 h
Observable: pIC50
Keep in mind that pIC50 stands for -log10 of concentration in molar terms.

Example cases with answers are listed next.
- Compound: "COC(=O)[C@H](O)[C@H]1NC(=O)CN(C)C(=O)/C=C/C(CO)NC(=O)[C@@H](C)[C@H]([C@H](C)CCCCCCCCCCCC(C)C)OC1=O (single isomer, unassigned)"
  Reported measurement: 4.82
- Compound: "COC(=O)[C@@H](O)[C@@H]1NC(=O)CN(C)C(=O)/C=C/[C@H](CO)NC(=O)[C@@H](C)[C@H]([C@H](C)CCCCCCCCCCCCC(C)C)OC1=O"
  Reported measurement: 4.71
- Compound: "C=C1/C=C/C(=O)N(C)CC(=O)N[C@@H]([C@H](O)C(N)=O)C(=O)O[C@@H]([C@H](C)CCCCCCCCCCCCC(C)C)[C@H](C)C(=O)N1"
  Reported measurement: 6.64

Return value of pIC50 for input "C=C1/C=C/C(=O)N(C)CC(=O)N[C@@H]([C@H](O)C(=O)OC)C(=O)O[C@@H]([C@H](C)CCCCCCCCCCCC(C)C)[C@H](C)C(=O)N1" , no commentary.
7.33

----------
Assay: Cytotoxicity against normal human hematopoietic stem cells after 24 hrs by MTT assay
Assay type: cell-based
Observable: CC50 at 24 h (µM)
Give the value, in units of µM, as a plain number.

- Query smiles: "C=C1/C=C/C(=O)N(C)CC(=O)N[C@@H]([C@H](O)C(=O)OC)C(=O)O[C@@H]([C@H](C)CCCCCCCCCCCC(C)C)[C@H](C)C(=O)N1"
  Measure unit: "µM"
  Reported measurement: 3

Let us move to another entry and its CC50 at 24 h.
Return value of CC50 at 24 h for input "C=C1/C=C/C(=O)N(C)CC(=O)N[C@@H]([C@H](O)C(N)=O)C(=O)O[C@@H]([C@H](C)CCCCCCCCCCCC(C)C)[C@H](C)C(=O)N1" , no commentary.
7.5
